Numbers sourced from patent US10336730B2.

pKi: −log10 of the molar value.
For purified human Factor XIa (Homo sapiens), measured pKi is reported for the entries below.
READOUT_NAME: pKi

> print(dat)
                                   compound  experimental.value
1  O=C(O)c1ccc(NC(=O)[C@H](Cc2ccccc2)n2cnc(-c3cc(Cl)ccc3-n3cc(C(F)(F)F)nn3)cc2=O)cc1 [Example 14]                8.51

1: O=C(O)c1ccc(NC(=O)[C@H](Cc2ccccc2)n2ncc(-c3c(F)ccc(Cl)c3F)cc2=O)cc1 [Example 144]
2: CC1=NN=C(NC(=O)[C@H](Cc2ccccc2)n2cnc(-c3cc(Cl)ccc3-n3cc(Cl)nn3)cc2=O)SC1 [Example 107]
Which item exceeds the other in pKi, 1 or 2 ? // return label of chosen record
1

P: Cc1cnc(CNC(=O)[C@H](Cc2ccccc2)n2cnc(-c3cc(Cl)ccc3-n3cc(Cl)nn3)cc2=O)cn1 [Example 51]
Q: O=C1CN(C(=O)[C@H](Cc2ccccc2)n2cnc(-c3cc(Cl)ccc3-n3cc(Cl)nn3)cc2=O)CCN1 [Example 53]
Which item exceeds the other in pKi, P or Q ? // return label of chosen record
P
(P: 5.83, Q: 5.12)
